Exercise: for every item that follows, state its recorded inhibition.
system: O-acetylserine sulfhydrylase (Mycobacterium tuberculosis) (UniProt P9WP55)
experimentalContext: at 500 nM
Description: Inhibition of Mycobacterium tuberculosis N-terminal His-6-tagged recombinant CysK1 expressed in Escherichia coli BL21 (DE3) at 500 nM after 20 mins by spectrophotometric analysis

Looking up CCN1C(=O)/C(=C/c2ccc(OC)cc2)S/C1=N\c1cccc(C(=O)O)c1 , I see its inhibition listed as 56.2%

Looking up CCN1C(=O)/C(=C/c2c[nH]c3ccccc23)S/C1=N\c1cccc(C(=O)O)c1 , I see its inhibition listed as 61.9%

Looking up C=CCN1C(=O)/C(=C/c2ccc(OCC(=O)OC)cc2)S/C1=N\c1cccc(C(C)=O)c1 , I see its inhibition listed as 10.9%

###

system: O-acetylserine sulfhydrylase (Mycobacterium tuberculosis)
experimentalContext: at 500 nM
Category scheme (inhibition): lowest = under 30%, middle = from 30% up to 50%, highest = 50% and over

Req: Input CCN1C(=O)/C(=C/c2cc(OC)c(OC)c(OC)c2)S/C1=N\c1cccc(C(=O)O)c1 ; output its category
Resp: middle

Req: Input CCN1C(=O)/C(=C/c2ccccc2OCc2ccccc2)S/C1=N\c1cccc(C(=O)O)c1 ; output its category
Resp: highest

Req: Input C=CCN1C(=O)/C(=C/c2ccc(O)cc2)S/C1=N\c1cccc(C(C)=O)c1 ; output its category
Resp: lowest

Req: Input CCN1C(=O)/C(=C/c2ccc(C)cc2)S/C1=N\c1cccc(C(=O)O)c1 ; output its category
Resp: middle

Req: Input CCN1C(=O)/C(=C/c2ccccc2O)S/C1=N\c1cccc(C(=O)O)c1 ; output its category
Resp: highest

Req: Input CCCCN1C(=O)/C(=C/c2ccc(OCC(=O)OC)cc2)S/C1=N\c1cccc(C(=O)O)c1 ; output its category
Resp: lowest

Req: Input CCCN1C(=O)/C(=C/c2ccc(OCC(=O)O)cc2)S/C1=N\c1cccc(C(C)=O)c1 ; output its category
Resp: lowest

Req: Input CCN1C(=O)/C(=C/c2ccccc2OCC(=O)O)S/C1=N\c1cccc(C(=O)O)c1 ; output its category
Resp: lowest

Req: Input Cc1ccccc1/C=C1\S/C(=N\c2cccc(C(=O)O)c2)N(C)C1=O ; output its category
Resp: highest

Req: Input CCN1C(=O)/C(=C/c2ccc(Br)cc2)S/C1=N\c1cccc(C(=O)O)c1 ; output its category
Resp: highest

Req: Input Cc1ccc(/C=C2\S/C(=N\c3cccc(C(=O)O)c3)N(C)C2=O)cc1 ; output its category
Resp: middle

Req: Input CCCCN1C(=O)/C(=C/c2ccc(OCC(=O)OC)cc2)S/C1=N\c1cccc(C(C)=O)c1 ; output its category
Resp: lowest

Req: Input C=CCN1C(=O)/C(=C/c2ccccc2OCC(=O)OC)S/C1=N\c1cccc(C(=O)O)c1 ; output its category
Resp: middle

###

system: O-acetylserine sulfhydrylase (Mycobacterium tuberculosis)
experimentalContext: at 500 nM
Is inhibition at least 30%? Then Met. If not, Not met.

Req: hey, is inhibition for this one >= 30%? CN1C(=O)/C(=C/c2cnccc2C(F)(F)F)S/C1=N\c1cccc(C(=O)O)c1
Resp: Met

Req: hey, is inhibition for this one >= 30%? CCCCN1C(=O)/C(=C/c2ccc(OCC(=O)O)cc2)S/C1=N\c1cccc(C(C)=O)c1
Resp: Not met

Req: hey, is inhibition for this one >= 30%? CCCCN1C(=O)/C(=C/c2ccc(O)cc2)S/C1=N\c1cccc(C(C)=O)c1
Resp: Not met

Req: hey, is inhibition for this one >= 30%? COC(=O)COc1ccc(/C=C2\S/C(=N\c3cccc(C(C)=O)c3)N(C(C)C)C2=O)cc1
Resp: Not met

Req: hey, is inhibition for this one >= 30%? CCN1C(=O)/C(=C/c2ccc(OCC(=O)OC)cc2)S/C1=N\c1cccc(C(C)=O)c1
Resp: Not met

Req: hey, is inhibition for this one >= 30%? CN1C(=O)/C(=C/c2c[nH]c3ccccc23)S/C1=N\c1cccc(C(=O)O)c1
Resp: Met

Req: hey, is inhibition for this one >= 30%? COc1cc(/C=C2\S/C(=N\c3cccc(C(=O)O)c3)N(C)C2=O)cc(OC)c1OC
Resp: Met

Req: hey, is inhibition for this one >= 30%? CN1C(=O)/C(=C/c2ccccc2O)S/C1=N\c1cccc(C(=O)O)c1
Resp: Met
